# tested.on: human KDR (VEGFR2) on cells (human, UniProt P35968 20-1356)
# Sequence (P35968 20-1356): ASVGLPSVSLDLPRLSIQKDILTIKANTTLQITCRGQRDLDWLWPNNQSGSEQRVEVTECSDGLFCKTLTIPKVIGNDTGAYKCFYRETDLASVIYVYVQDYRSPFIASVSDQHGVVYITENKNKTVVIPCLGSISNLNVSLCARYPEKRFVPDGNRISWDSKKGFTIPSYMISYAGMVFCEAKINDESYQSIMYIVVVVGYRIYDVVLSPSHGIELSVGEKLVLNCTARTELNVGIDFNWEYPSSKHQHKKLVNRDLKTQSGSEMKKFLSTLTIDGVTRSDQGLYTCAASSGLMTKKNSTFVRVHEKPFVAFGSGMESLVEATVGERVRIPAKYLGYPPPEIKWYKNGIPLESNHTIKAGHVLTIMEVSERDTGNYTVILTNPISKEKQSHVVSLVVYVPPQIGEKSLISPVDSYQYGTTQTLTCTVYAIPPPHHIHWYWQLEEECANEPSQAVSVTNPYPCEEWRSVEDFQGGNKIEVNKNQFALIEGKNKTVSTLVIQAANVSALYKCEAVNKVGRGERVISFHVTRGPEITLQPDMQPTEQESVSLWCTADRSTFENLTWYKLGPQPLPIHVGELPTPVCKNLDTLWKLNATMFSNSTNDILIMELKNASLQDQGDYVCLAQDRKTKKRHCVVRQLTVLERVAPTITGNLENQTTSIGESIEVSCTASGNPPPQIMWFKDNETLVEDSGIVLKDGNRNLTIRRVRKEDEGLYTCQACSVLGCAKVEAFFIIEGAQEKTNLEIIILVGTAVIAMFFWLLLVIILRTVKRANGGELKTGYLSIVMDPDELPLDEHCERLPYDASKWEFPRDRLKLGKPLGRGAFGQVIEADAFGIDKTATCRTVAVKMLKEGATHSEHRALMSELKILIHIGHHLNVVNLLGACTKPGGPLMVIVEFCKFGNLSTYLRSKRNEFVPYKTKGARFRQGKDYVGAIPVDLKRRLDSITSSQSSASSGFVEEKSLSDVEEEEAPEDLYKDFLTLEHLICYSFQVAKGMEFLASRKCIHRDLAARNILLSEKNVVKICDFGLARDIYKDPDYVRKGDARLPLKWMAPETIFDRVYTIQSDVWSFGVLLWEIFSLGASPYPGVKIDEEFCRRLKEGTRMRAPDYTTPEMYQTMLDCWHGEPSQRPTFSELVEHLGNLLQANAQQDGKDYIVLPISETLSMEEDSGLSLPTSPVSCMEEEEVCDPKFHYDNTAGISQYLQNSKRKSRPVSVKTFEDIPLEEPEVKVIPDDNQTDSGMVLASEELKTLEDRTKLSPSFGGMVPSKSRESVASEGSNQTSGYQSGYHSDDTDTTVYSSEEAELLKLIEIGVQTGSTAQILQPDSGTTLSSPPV
# test.protocol: cell-based or functional assay; also: test concentration or dose not given here
value.kind: % Inhibition of VEGF165-mediated pTyr Activity, n = 2 (%)
Kindly answer with a numeric value in %, unit omitted.

Bench note: what % Inhibition of VEGF165-mediated pTyr Activity, n = 2 did anti-KDR monoclonal antibody 30F6 (antibody, V domains shown, Fully human mAb from XenoMouse (IgG2 or IgG4 strain); hybridoma supernatant) VH: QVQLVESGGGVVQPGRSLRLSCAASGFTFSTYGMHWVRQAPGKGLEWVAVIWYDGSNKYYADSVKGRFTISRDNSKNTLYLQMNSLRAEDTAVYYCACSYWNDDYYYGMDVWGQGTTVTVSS VL: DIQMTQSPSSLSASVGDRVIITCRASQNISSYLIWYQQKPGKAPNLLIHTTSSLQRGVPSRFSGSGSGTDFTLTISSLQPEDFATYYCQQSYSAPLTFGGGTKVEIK show?
60

Bench note: what % Inhibition of VEGF165-mediated pTyr Activity, n = 2 did anti-KDR monoclonal antibody 32G7 (antibody, V domains shown, Fully human mAb from XenoMouse (IgG2 or IgG4 strain); hybridoma supernatant) VH: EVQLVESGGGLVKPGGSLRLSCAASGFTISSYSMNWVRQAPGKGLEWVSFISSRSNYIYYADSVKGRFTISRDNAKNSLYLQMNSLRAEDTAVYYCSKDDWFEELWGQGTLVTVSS VL: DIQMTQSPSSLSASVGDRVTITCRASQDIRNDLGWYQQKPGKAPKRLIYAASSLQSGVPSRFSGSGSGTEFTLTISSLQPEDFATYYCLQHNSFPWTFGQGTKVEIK show?
47

Bench note: what % Inhibition of VEGF165-mediated pTyr Activity, n = 2 did anti-KDR monoclonal antibody 33E1 (antibody, V domains shown, Fully human mAb from XenoMouse (IgG2 or IgG4 strain); hybridoma supernatant) VH: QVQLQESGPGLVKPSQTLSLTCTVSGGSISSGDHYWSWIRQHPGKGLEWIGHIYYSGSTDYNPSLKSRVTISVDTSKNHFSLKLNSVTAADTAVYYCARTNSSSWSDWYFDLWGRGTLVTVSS VL: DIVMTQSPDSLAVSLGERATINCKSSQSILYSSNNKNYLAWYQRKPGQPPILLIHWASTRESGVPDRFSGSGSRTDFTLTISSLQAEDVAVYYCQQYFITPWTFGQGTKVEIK show?
78

Bench note: what % Inhibition of VEGF165-mediated pTyr Activity, n = 2 did anti-KDR monoclonal antibody 29A3 (antibody, V domains shown, Fully human mAb from XenoMouse (IgG2 or IgG4 strain); hybridoma supernatant) VH: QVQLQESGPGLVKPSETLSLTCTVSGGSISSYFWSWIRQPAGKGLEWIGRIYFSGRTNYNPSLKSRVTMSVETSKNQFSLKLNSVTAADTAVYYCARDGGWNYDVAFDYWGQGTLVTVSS VL: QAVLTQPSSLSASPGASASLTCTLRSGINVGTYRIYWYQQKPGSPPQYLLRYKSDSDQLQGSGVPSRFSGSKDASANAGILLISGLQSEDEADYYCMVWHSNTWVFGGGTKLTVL show?
66
